These data points were gathered from ChEMBL document CHEMBL5058577.

Test system: U2OS
Assay: Multiplex assay against U2OS
Format: toxicity, cell-based
Settings: human, 12 h, 10 µM, compound concentration 10 uM, replicate 1
Listed here are molecules together with their documented Population Healthy Nuclei (%).
Kindly answer with a numeric value in %, unit omitted.

In the examples that follow, each entry is paired with its recorded Population Healthy Nuclei (%).
CC(C)(C)c1ccc(CSc2cnn(C(C)(C)C)c(=O)c2Cl)cc1 | 57
Cc1cc(NC(=O)NCCN2CCC(O)(Cc3ccccc3)CC2)c2ccccc2n1 | 59
O=C(NCCNCC(O)COc1ccc(O)cc1)N1CCOCC1.O=C(NCCNCC(O)COc1ccc(O)cc1)N1CCOCC1.O=C(O)/C=C/C(=O)O (configuration not stated) [XAMOTEROL FUMARATE] | 60

input: Please give the measured Population Healthy Nuclei (%) for this molecule: COCCn1c(C)c(C)s/c1=N\C(=O)C1C(C)(C)C1(C)C
output: 52

input: Please give the measured Population Healthy Nuclei (%) for this molecule: COc1c(Nc2ccc(S(C)(=O)=O)nc2C)ncnc1OC1CCN(C(=O)OC(C)C)CC1
output: 60

input: Please give the measured Population Healthy Nuclei (%) for this molecule: O=C(Nc1cc(-c2ccccc2)nn1-c1ccccc1F)c1ccc([N+](=O)[O-])cc1
output: 60

input: Please give the measured Population Healthy Nuclei (%) for this molecule: CC(C)(O)C(=O)N1CCN(c2ccc(C(F)(F)F)c(C3=C(c4c[nH]c5ccccc45)C(=O)NC3=O)c2)CC1
output: 46
